- assay.details: A qHTS for Small Molecule Inhibitors of Shiga Toxin; note: 0% is about no effect
- particulars: Vero cells, Shiga toxin protein synthesis inhibition reporter; at 38.7 µM, hits give high values
Screen size: about 290,000 compounds; about 27,000 (9.3%) were called active. For the sample, actives were picked, then their nearest neighbours and some compounds at random.
Measured inhibition, listed per entry.

| molecule | inhibition [%] |
| --- | --- |
| COc1ccc(C(=O)NCC(=O)N/N=C/c2cccnc2)cc1 | -9.22 |
| CCOc1ccc(C2C(C#N)=C(N)N(N(C)C)C3=C2C(=O)CCC3)cc1 (stereo not drawn) | -5.92 |
| COC(=O)c1cc(NC(=O)C2C3C=CC(C3)C2C(=O)O)cc(C(=O)OC)c1 (stereo not drawn) | -19 |

====

- assay.details: A qHTS for Small Molecule Inhibitors of Shiga Toxin; note: 0% is about no effect
- particulars: Vero cells, Shiga toxin protein synthesis inhibition reporter; at 38.7 µM, hits give high values
In all, about 290,000 compounds went through this assay and about 27,000 (9.3%) were called active. This is one part of a sample in which actives are shown more often than they occur.

| smiles.entry | inhibition (%) |
| --- | --- |
| CCn1c(SCC(=O)Nc2nc3ccc(OC)cc3s2)nnc1-c1ccoc1C | 56.7 |
| CC(=O)Nc1cccc(-c2csc(Nc3cccc(C)n3)n2)c1 | 103 |
| COc1ccc2nc(NC(=O)c3ccc(Br)s3)sc2c1 | 51.2 |
| CC(=O)Nc1ccc(S(=O)(=O)Nc2nc(-c3ccc(C(C)(C)C)cc3)cs2)cc1 | -13.5 |
| COc1ccc2nc(Nc3nc4ccc(NC(C)=O)cc4s3)sc2c1 | 35.3 |
| O=C(c1cccc(-n2cccc2)c1)N1CCN(S(=O)(=O)c2ccc(F)cc2)CC1 | -1.04 |
| Cc1cccc(S(=O)(=O)CC(=O)Nc2nc(-c3ccccc3)cs2)c1 | -3.62 |
| Cc1cccc(Nc2nc(-c3ccccc3)cs2)n1 | 150 |
| Cc1noc(C)c1-c1ccc2ncnc(NCc3ccc4[nH]ccc4c3)c2c1 | 70.1 |
| O=C(NC1CCCCCCC1)c1cccs1 | 88.4 |

====

- assay.details: A qHTS for Small Molecule Inhibitors of Shiga Toxin; note: 0% is about no effect
- particulars: Vero cells, Shiga toxin protein synthesis inhibition reporter; at 38.7 µM
In all, about 290,000 compounds went through this assay and about 27,000 (9.3%) were called active. No stated cut-off is given here; in the data, active means inhibition mostly above about 28% (no sharp cut-off); inactive means mostly below about 43%. Shown is part of a subset that was picked to be rich in actives.
Outcome codes: y = active, n = inactive

| compound | label.value |
| --- | --- |
| COc1ccccc1N1CCN(c2ncnc3sc(C)c(-c4ccccc4)c23)CC1 | n |
| N/C(=N\OC(=O)c1ccc([N+](=O)[O-])cc1)c1ccccn1 | y |
| COc1ccc(CNC(=O)CSc2n[nH]c(N)n2)cc1OC | n |
| CC1CCN(C(=S)NC(=O)c2ccccc2Br)CC1 | n |
| Cc1ccc(NC(=O)Nc2ccccc2)c(Br)c1 | y |
| CCOC(=O)c1c(NC(=O)/C=C/c2ccco2)sc(C)c1C | n |
| COc1ccc(OC)c(C(=O)NC(CC(N)=O)c2ccc(N3CCC(N4CCCCC4)CC3)c([N+](=O)[O-])c2)c1 (stereo not drawn) | n |
| Cc1ccc(N2NC(=O)/C(=C/C=C/c3ccco3)C2=O)cc1C | n |
| CCc1ccccc1NC(=O)c1cc(-c2ccc3c(c2)OCO3)on1 | n |
| COCC1CCCN(Cc2cn[nH]c2-c2cc3ccccc3o2)C1 (stereo not drawn) | n |
| COc1ccc(C(=O)NCCCN2CCOCC2)cc1Br | n |
| Cc1nn(CC(=O)NC2CCCCC2)c(=O)c2cccn12 | n |
| C=CCNC(=O)c1ccccc1SCc1c(C)noc1C | n |
| CCn1c(SCC(=O)NC2CCCC2)nnc1-c1ccoc1C | n |
| CCc1nc2nc(C)c(NS(=O)(=O)c3ccc4c(c3)CCCC4)c(=O)n2[nH]1 | n |
| O=C(NCc1ccccn1)c1cc(-c2ccccc2Cl)on1 | y |
| COc1ccc([N+](=O)[O-])cc1NCC(=O)c1ccc(C)cc1 | n |
| O=C(Nc1cccnc1Cl)c1cc(-c2ccccc2O)on1 | y |
| O=C(Nc1ccccc1C(F)(F)F)c1cc(-c2ccc(O)cc2)on1 | y |
| COc1cccc(CNC(=O)COc2cc(O)c3c(c2)OC(C)(C)CC3=O)c1 | n |
| COCC1CCCN(Cc2nc(-c3ccc4c(c3)OCO4)no2)C1 (stereo not drawn) | y |
| CC(C)CNC(=O)C(=O)NCc1ccccc1 | n |
| O=C(OCc1ccc([N+](=O)[O-])cc1)c1ccccn1 | n |

====

Measured inhibition, listed per entry.
- assay.details: A qHTS for Small Molecule Inhibitors of Shiga Toxin; note: 0% is about no effect
- particulars: Vero cells, Shiga toxin protein synthesis inhibition reporter; at 38.7 µM, hits give high values
Among all 290,000 compounds or so, about 27,000 (9.3%) were called active. This excerpt belongs to a sample that is enriched for actives.
value.kind: inhibition (%)

| compound | observed.measurement |
| --- | --- |
| Nc1nc(SCC(=O)NCCN2CCOCC2)nc2sc3c(c12)CCC3 | 7.28 |
| CC(CN1CCC(n2nccc2NC(=O)C2CCCC2)CC1)c1ccccc1 (configuration not stated) | -13 |
| Cc1cccc(C(=O)OC(C)CN2CCCC2)c1 (configuration not stated) | 5.97 |
| COc1cccc(C(=O)Nc2ccc(N3CCCC3)cc2)c1 | 47.9 |
| OCCNc1nc(Nc2ccc(Cl)c(Cl)c2)nc2ccccc12 | 29.5 |
| Cc1ccc2nc(-c3ccc(SCC(=O)Nc4cc(C)on4)nc3)[nH]c2c1 | 71.3 |
| O=C(c1c(F)cccc1Cl)N1CCN(S(=O)(=O)c2ccc3c(c2)OCCCO3)CC1 | -6.3 |

====

- assay.details: A qHTS for Small Molecule Inhibitors of Shiga Toxin; note: 0% is about no effect
- particulars: Vero cells, Shiga toxin protein synthesis inhibition reporter; at 38.7 µM
Hit rate of the full screen: of about 290,000 compounds, about 27,000 (9.3%) were called active. No stated cut-off is given here; in the data, active means inhibition mostly above about 28% (no sharp cut-off); inactive means mostly below about 43%. This is one part of a sample in which actives are shown more often than they occur.
Outcome codes: active, inactive

| compound | label.value |
| --- | --- |
| CCOc1ccc(N(C)S(=O)(=O)c2cnc[nH]2)cc1 | inactive |
| C/C(=N\NC(=O)c1ccoc1C)c1ccccc1O | active |
| CC1C(=O)Nc2ccc(S(=O)(=O)N3CCN(c4ccccc4F)CC3)cc2NC1=O (stereo not drawn) | inactive |
| CCOc1ccc(-c2noc(CCC(=O)NC3CCCC3)n2)cc1OC | inactive |
| Cc1ccc(-c2nc(C)sc2CC(=O)O)cc1 | inactive |
| Cc1ccc2nc(N(CCN(C)C)C(=O)C3=COCCO3)sc2c1 | inactive |
| O=C(/C=C\c1ccc2c(c1)OCO2)NC1(C(=O)Nc2ccc3c(c2)OCCO3)CCCCC1 | inactive |
| O=C(/C=C/c1ccc(Cl)c([N+](=O)[O-])c1)c1ccc(O)cc1 | inactive |

====

- assay.details: A qHTS for Small Molecule Inhibitors of Shiga Toxin; note: 0% is about no effect
- particulars: Vero cells, Shiga toxin protein synthesis inhibition reporter; at 38.7 µM, hits give high values
Screen size: about 290,000 compounds; about 27,000 (9.3%) were called active. Many of the other results were omitted from the sample, so actives are more common in it than they were.
value.kind: inhibition

| molecule | observed.measurement |
| --- | --- |
| O=C(Cc1ccsc1)N1CCN(S(=O)(=O)c2cc(C(F)(F)F)cc(C(F)(F)F)c2)CC1 | -17.3% (inactive) |
| COc1cccc2cc(/C(C)=N/NC(=O)c3ccco3)oc12 | 32.4% (inactive) |
| CC(=O)c1ccc(NC(=O)CCc2nnc3ccc(NCc4ccco4)nn23)cc1 | 49.7% (active) |
| Cc1ccc(SCCC(=O)NC(C(C)C)C(C)C)cc1 | -4.72% (inactive) |
| COc1ccc(CCNC(=S)N2CCN(S(=O)(=O)c3ccc(Cl)cc3)CC2)cc1 | -14.7% (inactive) |
| CC(=O)N1CCOc2ccc(S(=O)(=O)N3CCC(C(=O)Nc4ccccc4F)CC3)cc21 | -3.81% (inactive) |
| CCCCC(=O)Nc1ccccc1N1CCN(c2ccc(F)cc2)CC1 | -8.03% (inactive) |
| Cc1cs/c(=N\N=C\c2ccc(O)cc2)n1Cc1ccco1 | 0% (active) |
| Cc1cccc(NC(=S)NC(=O)c2ccc(Br)o2)c1 | 105% (active) |
| Cc1cc(NC(=O)c2ccc(F)cc2)ccc1NC(=O)c1ccco1 | 39.7% (inactive) |
| CCN1CCCC1CNC(=O)c1cc2cc(OC)c(OC)cc2[nH]1 (centres undefined) | -5.24% (inactive) |
| CN(c1ccccc1)S(=O)(=O)c1ccc2[nH]c(=O)[nH]c2c1 | 21.5% (inactive) |
| NC(=O)c1nsc(C(=O)N(CCCN2CCOCC2)C(C(=O)NC2CCCCC2)c2ccc(Cl)cc2)c1N (centres undefined) | -2.14% (inactive) |
| Cc1cc(CO)nn1-c1ccc([N+](=O)[O-])cc1 | 12.4% (inactive) |
| COc1cc(/C(=C/c2ccccc2)c2ccccc2)c2c(c1)oc1ccccc12 | -7.7% (inactive) |
| CN(C)/C=C(/C(=O)c1ccc(Cl)cc1)S(=O)(=O)c1ccccc1 | 64.1% (active) |
| Cc1ccccc1NC(=O)Cn1cc(C(=O)C2CC2)c2ccccc21 | 14.9% (inactive) |
| Cc1ccnc(NC(=O)c2ccc(NC(=O)c3ccco3)cc2)c1 | 64.6% (active) |
| Cc1cccc(NC(=O)c2nnn(-c3cccc(C(F)(F)F)c3)c2N)c1 | 31.4% (inactive) |
